Entry source: paper PMC5933782

Give pIC50 for every item shown.
Target: CDK2/cyclin A (Homo sapiens)
Experiment: radiometric protein kinase assay
Details: 15 μmol/L ATP; read-out: IC50 CDK2/cyclinA
pIC50: −log10 of the molar value.

Use these answered entries as a reference point.
input_smiles	pIC50
O=C1NCc2ccc3c(-c4ccc(Cl)cc4)c[nH]c3c21	< 5.00
CC(=O)Oc1cccc(-c2c[nH]c3c4c(ccc23)CNC4=O)c1	< 5.00

Here's the next entry for you.
Ask: Data request, read-out pIC50, for O=C1NCc2ccc3c(-c4ccccc4Cl)c[nH]c3c21
Result: < 5.00

====

Tested on: CK1δ/ε
Experiment: radiometric protein kinase assay
Type: biochemical, porcine
Settings: 10 µM concentration; ± SEM
Returns: string. Value is Yes if measured Residual enzyme activity CK1 is below 60%, and No if it is greater than or equal to it.

// known answers, use as guide
molecule	answer_label
Cc1ccc(-c2[nH]c3c4c(ccc3c2C)CNC4=O)cc1 [S18e]	No
CCc1c(-c2ccccc2)[nH]c2c3c(ccc12)CNC3=O [S18d]	No
Cc1[nH]c2c3c(ccc2c1C)CNC3=O [S18b]	No
CCc1[nH]c2c3c(ccc2c1C)CNC3=O [S18a]	Yes
Cc1[nH]c2c3c(ccc2c1C)C(=O)NC3=O [S19]	No
Cc1c(-c2ccccc2)[nH]c2c3c(ccc12)CNC3=O [S18c]	Yes

Moving on to the next molecule.
Ask: Just wondering, is Residual enzyme activity CK1 of O=C1NCc2ccc3c(-c4ccccc4)c[nH]c3c21 [8a] below 60%?
Result: No
